SYSTEM UNDER TEST: biotinylated His-Avi-TEAD (194-411) (UniProt P28347)
TEST SUMMARY: SSM screen, enrichment after two rounds of sorting
VALUE TYPE: enrichment score

P = GSPDEYIERAKECCKKGDKQCCLRYFEESGDPNVMLICLFCP (designed binder) [I17K variant of SEQ ID NO: 1]
Q = GSPDENIERAKECCKKGDIQCCLRYFEESGDPNVMLICLFCP (designed binder) [Y04N variant of SEQ ID NO: 1]
## Task Which one would you say has the larger enrichment score value: P , or Q ? Refer to your chosen entry by its label in the reply.
## Result Q

a = GSPDEYIERAKECCKKDDIQCCLRYFEESGDPNVMLICLFCP (designed binder) [G15D variant of SEQ ID NO: 1]
b = GSNDEYIERAKECCKKGDIQCCLRYFEESGDPNVMLICLFCP (designed binder) [P01N variant of SEQ ID NO: 1]
c = GSPYEYIERAKECCKKGDIQCCLRYFEESGDPNVMLICLFCP (designed binder) [D02Y variant of SEQ ID NO: 1]
## Task Reorder the items by enrichment score, least to greatest. Output spec: a listing of the labels in the requested order.
## Result c, b, a
(c: -1.63, b: -0.49, a: -0.26)
